target: 2CC-core; assay: SPR, antigen on chip, IgG injected
readout.label: Kd (nM)
Write the value in nM as a bare number.

{"binder": "3BNC55 (antibody, V domains shown, also called 3BNC55HC; 3BNC55KC) VH: QVQLVQSGTAVKRPGASVRVSCQASGYTFTDYFIYWWRQAPGQGLEWLGWINPLTSQPSYPSRFQGRLTLTRDTFDEMLYMDLRGLRSDDTGIYFCARRHSDYCDFDIWGSGTQIIVSS VL: DIQMTQSPSSLSASVGDKVTITCQTSAGYLNWYQQRRGRAPKLLMYDGSRLVTGVPSRFSGRRWGTQYNLTIGSLQPEDIATYYCQVYEFFGPGTRLDLKS", "Kd [nM]": 25.7}

Would you mind telling me what Kd value was observed for 3BNC60 (antibody, V domains shown, also called 3BNC60HC; 3BNC60KC) VH: QVHLSQSGAAVTKPGASVRVSCEASGYKISDHFIHWWRQAPGQGLQWVGWINPKTGQPNNPRQFQGRVSLTRQASWDFDTYSFYMDLKAVRSDDTAIYFCARQRSDFWDFDVWGSGTQVTVSSASTKG VL: DIQMTQSPSSLSARVGDTVTITCQANGYLNWYQQRRGKAPKLLIYDGSKLERGVPARFSGRRWGQEYNLTINNLQPEDVATYFCQVYEFIVPGTRLDLKRTVAA ?
54.5

Would you mind telling me what Kd value was observed for 8ANC134 (antibody, V domains shown, also called 8ANC134HC; 8ANC134KC) VH: QGQLVQSGGGVKKPGTSVTISCLASEYTFNEFVIHWIRQAPGQGPVWLGLIKRSGRLMTSYKFQDRLSLRRDRSTGTVFMELRGLRLDDTAVYYCARDGLGEVAPAYLYGIDAWGQGSTVIVTS VL: EIVLTQSPATLSLSPGERATLSCRASQGLNFVVWYQQKGGQAPRLLIHGPTDRAPGVPDRFSARGSGTEFSLVISSVEPDDFALYYCQEYSSTPYNFGPGTRVDRKR ?
46.1

Would you mind telling me what Kd value was observed for 12A21 (antibody, V domains shown, also called 12A21HC; 12a21kc) VH: SQHLVQSGTQVKKPGASVRVSCQASGYTFTNYILHWWRQAPGQGLEWMGLIKPVFGAVNYARQFQGRIQLTRDIYREIAFLDLSGLRSDDTAVYYCARDESGDDLKWHLHPWGQGTQVIVSP VL: DIQMTQSPSSLSASVGDRVTINCQAGQGIGSSLNWYQKKPGRAPKLLVHGASNLQRGVPSRFSGSGFHTTFTLTISSLQPDDVATYFCAVFQWFGPGTKVDIKR ?
1.81

Would you mind telling me what Kd value was observed for 3BNC117 (antibody, V domains shown, also called 3BNC117HC; 3bnc117kc) VH: QVQLLQSGAAVTKPGASVRVSCEASGYNIRDYFIHWWRQAPGQGLQWVGWINPKTGQPNNPRQFQGRVSLTRHASWDFDTFSFYMDLKALRSDDTAVYFCARQRSDYWDFDVWGSGTQVTVSSASTKG VL: DIQMTQSPSSLSASVGDTVTITCQANGYLNWYQQRRGKAPKLLIYDGSKLERGVPSRFSGRRWGQEYNLTINNLQPEDIATYFCQVYEFVVPGTRLDLKRTVAAPSVFIFPPSD ?
36.8

Would you mind telling me what Kd value was observed for 12A12 (antibody, V domains shown, also called 12A12HC; 12a12kc) VH: SQQLVQSGTQVKKPGASVRISCQASGYSFTDYVLHWWRQAPGQGLEWMGWIKPVYGARNYARRFQGRINFDRDIYREIAFMDLSGLRSDDTALYFCARDGSGDDTSWHLDPWGQGTLVIVSA VL: DIQMTQSPSSLSASVGDRVTITCQAGQGIGSSLQWYQQKPGKAPKLLVHGASNLHRGVPSRFSGSGFHTTFSLTISGLQRDDFATYFCAVLEFFGPGTKVEIKR ?
0.0269

Would you mind telling me what Kd value was observed for 8ANC131 (antibody, V domains shown, also called 8ANC131HC; 8ANC131KC) VH: QGQLVQSGGGLKKPGTSVTISCLASEYTFNEFVIHWIRQAPGQGPLWLGLIKRSGRLMTAYNFQDRLRLRRDRSTGTVFMELRGLRPDDTAVYYCARDGLGEVAPDYRYGIDVWGQGSTVIVTA VL: EIVLTQSPATLSLSPGERATLSCRASQGLNFVVWYQQKRGQAPRLLIHAPSGRAPGVPDRFSARGSGTEFSLVISSVEPDDFAIYYCQEYSSTPYNFGPGTRVDRKR ?
66.1

Would you mind telling me what Kd value was observed for 1NC9 (antibody, V domains shown, also called LSSNEC9HC; LSSNEC9LC) VH: QVRLVQSGAQLKKPGASVTVSCEASGYNFVNYIINWVRQTPGRSFEWVGMIDPRRGRPWSAQKFQGRLTLTRDIDSEKLYMHLSGLRGDDTAVYYCARQDSDFHDGHGHTLRGMFDSWGQGSPVTVSS VL: QVLSVSGTPGQRVIISCSGTSSNVGGNLVSWYQHLPGAAPRLLIHRDDQRPSGVPDRFSGSKSGNSASLVISGLRSDDEADYFCAAYDSTFSLPVFGGGTRLTVLS ?
4.61
